biological target: Inhibitor of nuclear factor kappa-B kinase subunit beta (Homo sapiens, UniProt O14920); assay: Inhibitory activity against recombinant human I-kappa-B-kinase beta
Sequence (O14920 whole entry): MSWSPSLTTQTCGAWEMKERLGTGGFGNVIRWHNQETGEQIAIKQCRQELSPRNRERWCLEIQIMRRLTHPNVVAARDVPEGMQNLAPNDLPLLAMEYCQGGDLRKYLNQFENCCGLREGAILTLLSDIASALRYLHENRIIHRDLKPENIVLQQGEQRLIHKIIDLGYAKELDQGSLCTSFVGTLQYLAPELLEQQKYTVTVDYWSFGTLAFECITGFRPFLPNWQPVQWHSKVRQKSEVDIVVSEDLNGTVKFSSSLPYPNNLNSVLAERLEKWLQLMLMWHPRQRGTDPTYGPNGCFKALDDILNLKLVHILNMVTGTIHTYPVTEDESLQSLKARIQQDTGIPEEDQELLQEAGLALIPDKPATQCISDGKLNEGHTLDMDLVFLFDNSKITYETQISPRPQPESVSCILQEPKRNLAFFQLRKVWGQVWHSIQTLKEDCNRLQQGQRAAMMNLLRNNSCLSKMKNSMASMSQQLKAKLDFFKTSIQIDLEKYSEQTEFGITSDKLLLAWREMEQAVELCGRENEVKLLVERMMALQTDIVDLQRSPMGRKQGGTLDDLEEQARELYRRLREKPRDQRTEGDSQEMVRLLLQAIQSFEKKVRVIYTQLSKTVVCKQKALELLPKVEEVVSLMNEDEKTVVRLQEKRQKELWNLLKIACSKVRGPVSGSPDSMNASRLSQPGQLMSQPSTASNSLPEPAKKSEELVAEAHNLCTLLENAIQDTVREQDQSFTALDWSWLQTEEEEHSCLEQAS
pIC50: −log10 of the molar value.
Rule: 1.0 for pIC50 not less than 7, 0.0 for anything less.

> print(dat)
                                   molecule                             target.system  label.value
1  CC(=O)Nc1nc(-c2ccccc2O)cc(C2CCCNC2)c1C#N (configuration not stated)  Inhibitor of nuclear factor kappa-B kinase subunit beta (Homo sapiens, UniProt O14920)          0.0
2  N#Cc1c(C2CCCNC2)cc(-c2ccccc2)nc1N (configuration not stated)  Inhibitor of nuclear factor kappa-B kinase subunit beta (Homo sapiens, UniProt O14920)          0.0
3  CC(C)C(N)c1cc(-c2ccccc2O)nc(N)c1C#N (configuration not stated)  Inhibitor of nuclear factor kappa-B kinase subunit beta (Homo sapiens, UniProt O14920)          0.0
4  CN1CCCC(c2cc(-c3ccccc3O)nc(N)c2C#N)C1 (configuration not stated)  Inhibitor of nuclear factor kappa-B kinase subunit beta (Homo sapiens, UniProt O14920)          0.0
5  N#Cc1c(C2CCCNC2)cc(-c2ccccc2O)nc1N (configuration not stated)  Inhibitor of nuclear factor kappa-B kinase subunit beta (Homo sapiens, UniProt O14920)          1.0
6  N#Cc1c(C(N)Cc2ccc(F)cc2)cc(-c2ccccc2O)nc1N (configuration not stated)  Inhibitor of nuclear factor kappa-B kinase subunit beta (Homo sapiens, UniProt O14920)          1.0
7  N#Cc1c(C(N)CCc2ccccc2)cc(-c2ccccc2O)nc1N (configuration not stated)  Inhibitor of nuclear factor kappa-B kinase subunit beta (Homo sapiens, UniProt O14920)          0.0
8  CC(N)Cc1cc(-c2ccccc2O)nc(N)c1C#N (configuration not stated)  Inhibitor of nuclear factor kappa-B kinase subunit beta (Homo sapiens, UniProt O14920)          0.0
9  N#Cc1c(C(N)Cc2ccccc2)cc(-c2ccccc2O)nc1N (configuration not stated)  Inhibitor of nuclear factor kappa-B kinase subunit beta (Homo sapiens, UniProt O14920)          1.0

Value source: ChEMBL document CHEMBL1137129
